I'd be grateful if you could share measured inhibition for these entries.
biological target: Mitogen-activated protein kinase 11 (Homo sapiens); settings: at 1 µM;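 also: values are mean percent inhibition of p38beta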
Numbers only, in %.

SMILES STRUCTURE | inhibition [%]
Oc1cccc(-c2nc(-c3ccccc3)[nH]c2-c2ccncc2)c1 | 47.7
NS(=O)(=O)c1ccc(Nc2cc(-c3cccc(O)c3)n[nH]2)cc1 | 9.77
OCc1ccc(-c2nc(-c3ccccn3)c(-c3ccc4c(c3)OCO4)[nH]2)cc1 | 4.4

# batch size: 3; output inhibition per entry
1. Cc1ccc2c(-c3ccnc(Nc4cccc(C(F)(F)F)c4)n3)c(-c3ccccc3)nn2n1
2. Cc1cc(-c2ccccn2)cc(C)c1/C=C/c1cncc(-c2nn[nH]n2)c1
3. Nc1nccc(C#Cc2cncnc2Nc2ccc(OCc3cccc(F)c3)c(Cl)c2)n1

45.1
1.89
4.43

# batch size: 6; output inhibition per entry
1. NS(=O)(=O)c1ccc(N/N=C2\C(=O)Nc3ccc(Cl)cc32)cc1
2. COc1ccc2ncnc(Nc3ccc(OCc4ccccc4)cc3)c2c1
3. CC(C)c1ccc(Nc2nccc(-c3cnn4ncccc34)n2)cc1
4. CC(C)c1ccc2c(c1)NC(=O)/C2=N/Nc1ccc(S(N)(=O)=O)cc1
5. ON=C1CCc2cc(-c3nc(C4CCNCC4)[nH]c3-c3ccncc3)ccc21
6. COc1cc2ncnc(Nc3ccc4c(cnn4Cc4ccccc4)c3)c2cc1OC

1: 5.91; 2: 7.38; 3: 5.44; 4: 3.37; 5: 33.1; 6: 1.39

# batch size: 8; output inhibition per entry
1. COc1ccc(-c2nn3ncccc3c2-c2ccnc(Nc3cccc(C(F)(F)F)c3)n2)cc1
2. CN(C)c1cc2c(Nc3ccc4c(cnn4Cc4ccccc4)c3)ncnc2cn1
3. Cc1cc(O)cc(C)c1/C=C/c1cncc(C(=O)N(C)C)c1
4. CN(C)C(=O)O[C@H]1CN[C@H](C#Cc2cc3ncnc(Nc4ccc(OCc5cccc(F)c5)c(Cl)c4)c3s2)C1
5. Nc1ccc(C#Cc2cncnc2Nc2ccc(OCc3cccc(F)c3)c(Cl)c2)cc1
6. c1ccc(Cc2nc3ccc(Nc4ncnc5ccccc45)cc3[nH]2)cc1
7. COc1cc2ncnc(Nc3ccc(C)c(O)c3)c2cc1OC
8. NS(=O)(=O)c1cccc(-c2cc3ccncc3cc2OCc2ccccc2)c1

1: 24.7; 2: 4.06; 3: 8.48; 4: 1.53; 5: 6.16; 6: 2.79; 7: 17.4; 8: 5.6

Look up inhibition: CN1CCN(C(=O)c2ccc(NC(=O)Nc3ccc(N(C)c4ccnc(Nc5ccc(CS(C)(=O)=O)cc5)n4)cc3)cc2)CC1
3.23

Recorded values, source ChEMBL document CHEMBL1961873.
